B1: glmS ribozyme (parent)
chain: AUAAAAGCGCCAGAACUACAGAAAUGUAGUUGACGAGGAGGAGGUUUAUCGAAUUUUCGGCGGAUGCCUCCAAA

variants of: B1; experiment: self-cleavage kobs at 640 uM GlcN6P; higher = faster cleavage; RNA array; conditions: with glucosamine-6-phosphate
Fewer inactive variants are shown than the library holds.
Readings of self-cleavage kobs at 640 uM GlcN6P for the listed variants
A number alone suffices; assume s⁻¹.

Solved cases below.
G40U U46C U55G    0.000194
A52G U55C    0.000325
U47C C68G    3.62e-05
C10A C67G C70A    0.000293
U31G C50G    0.000175

Measured self-cleavage kobs at 640 uM GlcN6P of A12C A14U : 9.07e-05
